- protocolText: Plasma concentration in Wistar rat at 10 mg/kg, po measured after 1 hr
- Type: ADME, organism-based
measuredMetric: concentration at 1 h (nM)
// return numeric value only (unit: nM, not printed)

concentration at 1 h lookup needed for Cn1c(Cl)c2c(c1C(=O)NCc1cccnc1OCC(F)(F)F)CCC(C)(C)C2 , thanks.
353

----------
For each of the compounds below, state its solubility.
- protocolText: Aqueous solubility of the compound at pH 7
- Format: physicochemical
// return numeric value only (unit: µg/mL, not printed)

solubility lookup needed for Cn1c(Cl)c2c(c1C(=O)NCc1ccncc1OCC(F)(F)F)CCC(C)(C)C2 , thanks.
1

solubility lookup needed for Cc1onc(CNC(=O)c2c3c(c(Cl)n2C)CC(C)(C)CC3)c1Cn1cccn1 , thanks.
7

----------
- protocolText: Intrinsic clearance in rat liver microsomes
- Assay type: ADME, microsome
- assayContext: read-out: CLH
measuredMetric: microsomal CLint (µL/min/mg)
// return numeric value only (unit: µL/min/mg, not printed)

microsomal CLint lookup needed for Cn1c(Cl)c2c(c1C(=O)NCc1ccncc1OCC(F)(F)F)CCC(C)(C)C2 , thanks.
645

microsomal CLint lookup needed for Cn1c(Cl)c2c(c1C(=O)NCc1cccnc1OCC(F)(F)F)CCC(C)(C)C2 , thanks.
420

----------
For each of the compounds below, state its solubility.
- protocolText: Aqueous solubility of the compound at pH 7
- Assay type: physicochemical

solubility lookup needed for CC(C)OCc1ccccc1CNC(=O)c1c2c(c(Cl)n1C)CC(C)(C)CC2 , thanks.
< 1 µg/mL

solubility lookup needed for Cn1c(Cl)c2c(c1C(=O)NCc1ncccc1N1CC[C@H](F)C1)CCC(C)(C)C2 , thanks.
< 1 µg/mL

solubility lookup needed for Cn1c(Cl)c2c(c1C(=O)NCc1cccnc1OCC(F)(F)F)CCC(C)(C)C2 , thanks.
< 1 µg/mL
